# Tested on: 280 human cancer cell lines
# test name: OncoPanel cell proliferation assay (10-day)
# Assay type: cell-based
# test conditions: Homo sapiens, BeWo, Placenta; read-out: Cell Count IC50
Provide the reported pIC50 of each item.
One number for each entry, as −log10 of the molar value.

• CC(C)=CCC[C@H](C)[C@@H]1CC[C@@H](C)c2c1cc(C)c(O)c2O [Compound 4, 7,8-dihydroxyserrulat-14-ene] = 4.81

Moving on to the next compound.
Hi! What's the reported pIC50 for CC(C)=CCC[C@H](CO)[C@@H]1CC[C@@H](C)c2c1cc(C)c(O)c2O [Compound 1, 7,8,18-trihydroxyserrulat-14-ene] on 280 human cancer cell lines?
5.04

====

# Tested on: Toll-like receptor 4 (TLR4) activation on human peripheral blood mononuclear cells (PBMC's)
# test name: TLR4 inhibition assay, LPS-induced cytokine release
# Type: cell-based
# test conditions: Homo sapiens, PBMC, 24 h, I-1β; human PBMC, 24-hour LPS stimulation; read-out: LPS-induced cytokine IC50
measure name: pIC50
Numbers only, as −log10 of the molar value.

Suppose we examine the molecule CC(C)=CCC[C@H](CO)[C@@H]1CC[C@@H](C)c2c1cc(C)c(O)c2O [Compound 1, 7,8,18-trihydroxyserrulat-14-ene] ; what pIC50 value has been reported?
5.18

====

# target entity: JMJD3 (h) (Homo sapiens, UniProt O15054)
# Sequence (O15054 whole entry): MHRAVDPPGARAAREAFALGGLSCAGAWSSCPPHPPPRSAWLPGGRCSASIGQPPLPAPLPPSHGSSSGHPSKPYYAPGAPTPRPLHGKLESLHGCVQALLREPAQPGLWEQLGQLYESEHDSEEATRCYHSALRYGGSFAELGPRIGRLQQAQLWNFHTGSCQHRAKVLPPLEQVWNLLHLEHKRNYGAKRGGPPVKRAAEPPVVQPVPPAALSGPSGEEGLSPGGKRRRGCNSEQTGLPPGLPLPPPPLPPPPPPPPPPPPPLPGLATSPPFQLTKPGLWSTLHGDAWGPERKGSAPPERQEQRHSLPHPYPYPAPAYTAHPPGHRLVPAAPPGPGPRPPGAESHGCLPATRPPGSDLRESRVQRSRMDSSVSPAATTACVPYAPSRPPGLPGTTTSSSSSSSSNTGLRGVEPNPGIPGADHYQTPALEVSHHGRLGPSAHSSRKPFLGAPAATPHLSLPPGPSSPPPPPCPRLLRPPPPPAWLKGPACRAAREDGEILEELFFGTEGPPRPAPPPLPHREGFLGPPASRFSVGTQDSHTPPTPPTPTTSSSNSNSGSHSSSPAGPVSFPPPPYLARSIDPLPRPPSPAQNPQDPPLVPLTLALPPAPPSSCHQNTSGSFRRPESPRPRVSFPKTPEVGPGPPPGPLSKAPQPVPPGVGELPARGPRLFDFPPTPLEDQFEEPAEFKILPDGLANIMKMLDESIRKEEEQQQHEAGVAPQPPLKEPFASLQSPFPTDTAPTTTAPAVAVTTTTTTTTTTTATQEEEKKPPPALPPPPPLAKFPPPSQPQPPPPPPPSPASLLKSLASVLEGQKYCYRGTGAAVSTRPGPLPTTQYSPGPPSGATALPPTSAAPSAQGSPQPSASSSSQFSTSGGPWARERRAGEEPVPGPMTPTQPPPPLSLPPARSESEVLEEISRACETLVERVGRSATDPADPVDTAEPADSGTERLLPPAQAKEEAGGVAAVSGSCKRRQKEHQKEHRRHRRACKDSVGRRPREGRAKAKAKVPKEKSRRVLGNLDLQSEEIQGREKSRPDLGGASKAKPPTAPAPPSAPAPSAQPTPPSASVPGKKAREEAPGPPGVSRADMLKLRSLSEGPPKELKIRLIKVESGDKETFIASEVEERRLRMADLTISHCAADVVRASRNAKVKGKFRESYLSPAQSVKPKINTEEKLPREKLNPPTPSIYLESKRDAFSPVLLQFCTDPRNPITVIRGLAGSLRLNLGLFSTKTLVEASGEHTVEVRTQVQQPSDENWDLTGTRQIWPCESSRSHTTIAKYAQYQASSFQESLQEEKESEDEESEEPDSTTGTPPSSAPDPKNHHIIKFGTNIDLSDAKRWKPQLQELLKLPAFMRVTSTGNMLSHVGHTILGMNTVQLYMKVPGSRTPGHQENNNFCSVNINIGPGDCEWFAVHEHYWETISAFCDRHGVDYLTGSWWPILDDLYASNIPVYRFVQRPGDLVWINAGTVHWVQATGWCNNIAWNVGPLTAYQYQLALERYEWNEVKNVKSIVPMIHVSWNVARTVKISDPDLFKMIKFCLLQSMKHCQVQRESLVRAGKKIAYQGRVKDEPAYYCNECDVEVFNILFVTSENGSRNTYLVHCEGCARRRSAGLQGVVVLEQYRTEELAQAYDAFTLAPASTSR
measure name: pIC50
Answers are plain numbers, as −log10 of the molar value.

Quick one: pIC50 of CC(C)=CCC[C@H](CO)[C@@H]1CC[C@@H](C)c2c1cc(C)c(O)c2O [Compound 1, 7,8,18-trihydroxyserrulat-14-ene] ?
4.85

====

# Tested on: 280 human cancer cell lines
# test name: OncoPanel cell proliferation assay (10-day)
# Assay type: cell-based
# test conditions: Homo sapiens, DB, Lymphoma; read-out: Cell Count IC50
Give IC50 for every item shown.
Answers are plain numbers, in µM.

Provide IC50 for all items below, preserving their order.
1. CC(C)=CCC[C@H](C)[C@@H]1CC[C@@H](C)c2c1cc(C)c(O)c2O [Compound 4, 7,8-dihydroxyserrulat-14-ene]
2. CC(C)=CCC[C@H](CO)[C@@H]1CC[C@@H](C)c2c1cc(C)c(O)c2O [Compound 1, 7,8,18-trihydroxyserrulat-14-ene]
3. CC(C)=CCC[C@@H]1C(O)Oc2c(C)cc(O)c3c2[C@H]1CC[C@H]3C (stereo partly drawn) [Compound 2, 5,18-epoxyserrulat-14-en-8,18-diol]

1: 3.85; 2: 2.1; 3: 3.25

====

# System: 280 human cancer cell lines
# test name: OncoPanel cell proliferation assay (10-day)
# Assay type: cell-based
# test conditions: Homo sapiens, CAKI-1, Caki-1, Kidney; read-out: Cell Count EC50
measure name: pEC50
One number for each entry, as −log10 of the molar value.

* CC(C)=CCC[C@H](C)[C@@H]1CC[C@@H](C)c2c1cc(C)c(O)c2O [Compound 4, 7,8-dihydroxyserrulat-14-ene] | 4.84
* CC(C)=CCC[C@@H]1C(O)Oc2c(C)cc(O)c3c2[C@H]1CC[C@H]3C (stereo partly drawn) | 6.77

// moving on: another record for pEC50
Recorded pEC50 of CC(C)=CCC[C@H](CO)[C@@H]1CC[C@@H](C)c2c1cc(C)c(O)c2O [Compound 1, 7,8,18-trihydroxyserrulat-14-ene] , please.
5.54
